These data points were gathered from PubChem BioAssay (NCATS).

- experiment.description: BET inhibitor-based combinations targeting novel dependencies in MECOM-rearranged (r) AML: AML-194 cell line (AID 2202237; note: nearly all actives have a fitted effect of over 40% in size; note: potency is the fitted concentration of half-maximal effect)
- condition.description: AML-194 (MECOM-r AML) viability, CellTiter-Glo, 48 h; series mostly up to 46 µM
Inconclusive results are not listed. Calls of active or inactive are those of the source. Calls come from the whole dose curve; as a rule, active = well fitted inhibition curve with a large enough effect; inconclusive = small, poorly fitted or top-dose-only effect; inactive = flat fitted curve, though single readings scatter.
assay.endpoint: Potency

compound	assay.endpoint	reading
COc1cc2nc(-c3cc(F)ccc3O)nc(N[C@@H]3CNC[C@H]3C(C)(C)O)c2cc1OC	Potency	6.61 µM (active)
CN(C)N(C)C(=O)[C@@]1(Cc2ccccc2)CCCN(C(=O)[C@@H](Cc2c[nH]c3ccccc23)NC(=O)C(C)(C)N)C1	Potency	inactive
CN(C)C/C=C/C(=O)Nc1cccc(C(=O)Nc2cccc(Nc3ncc(Cl)c(-c4c[nH]c5ccccc45)n3)c2)c1	Potency	0.525 µM (active)
Cc1cc(C(C)(C)C)c(O)c(C)c1CC1=NCCN1	Potency	inactive
C[C@H](NC(=O)Cc1cc(F)cc(F)c1)C(=O)N[C@@H]1C(=O)N(C)c2ccccc2-c2ccccc21	Potency	inactive

Look at each compound and report its Potency.
1. CC(N[C@H]1CCCC[C@H]1NC(=O)c1ccc(Cl)cc1)c1cccc2ccccc12 (stereo not given in full)
2. C=CC(=O)Nc1cccc(Nc2nc(Nc3ccc(NC4CN(CCF)C4)cc3OC)ncc2C(F)(F)F)c1
3. O=C(O)c1ccc(O)c2ncc(N3CCOCC3)cc12
4. Nc1ncnc2c1c(-c1cccc(OCc3ccccc3)c1)cn2C1CC(CN2CCC2)C1 (stereo not given)
5. Nc1cccc(S(=O)(=O)N2CCCN(S(=O)(=O)c3ccc4c(c3)OCCO4)CC2)c1

Resp:
1: 8.33 µM (active); 2: 13.2 µM (active); 3: inactive; 4: 16.6 µM (active); 5: inactive

Look at each compound and report its Potency.
1. NC(=O)c1ccc(I)c([N+](=O)[O-])c1
2. Cc1cc(O)c2c(c1)C(=O)c1cccc(O)c1C2=O
3. C[C@@H](N)c1ccc(C(=O)Nc2ccnc3[nH]ccc23)cc1
4. CN(CCOc1ccc(CC2SC(=O)NC2=O)cc1)c1ccccn1 (stereo not given)
5. CC(C)(OCc1nn(Cc2ccccc2)c2ccccc12)C(=O)O
6. Nc1ccccc1NC(=O)c1ccc(CNC(=O)OCc2cccnc2)cc1
7. N#Cc1c(C2CCNCC2)cc(-c2c(O)cccc2OCC2CC2)nc1N
8. O=C(Nc1ccc2c(c1)CCN(Cc1ncn[nH]1)C2)c1ccccc1-c1ccc(C(F)(F)F)cc1

Resp:
["inactive", "inactive", "14.8 µM (active)", "inactive", "inactive", "4.68 µM (active)", "16.6 µM (active)", "inactive"]

Look at each compound and report its Potency.
1. N#Cc1cccc(-c2c[nH]c3ncnc(N4CCOCC4)c23)c1
2. COC(=O)C1=C(C)NC(C)=C(C(=O)OCCCN2CCC(c3ccccc3)(c3ccccc3)CC2)C1c1cccc([N+](=O)[O-])c1 (stereo not given)

Resp:
1: inactive; 2: 20.9 µM (active)
